# credit: patent US11274295B2

# Test system: E. coli expressing WT APH(3′)II
MIC: recorded values
reported property: MIC (µg/mL)

[
  {
    "compound": "NC[C@@H]1O[C@H](O[C@H]2[C@@H](O)[C@H](O[C@@H]3[C@@H](O)[C@H](N)C[C@H](N)[C@H]3O[C@H]3O[C@H](CO)[C@@H](O)[C@H](O)[C@H]3N)O[C@@H]2CO)[C@H](N)[C@@H](O)[C@@H]1O [paromomycin]",
    "assay system": "E. coli expressing WT APH(3′)II",
    "result value": 320
  },
  {
    "compound": "NCC[C@H](O)C(=O)N[C@@H]1C[C@H](N)[C@@H](O[C@H]2O[C@H](CN)[C@@H](O)[C@H](O)[C@H]2O)[C@H](O)[C@H]1O[C@H]1O[C@H](CO)[C@@H](O)[C@H](N)[C@H]1O [amikacin]",
    "assay system": "E. coli expressing WT APH(3′)II",
    "result value": 10
  },
  {
    "compound": "NC[C@H]1O[C@H](O[C@H]2[C@H](O[C@@H]3O[C@H](CO)[C@@H](O)[C@H]3O)[C@@H](O)[C@H](N)C[C@@H]2N)[C@H](N)[C@@H](O)[C@@H]1O [ribostamycin]",
    "assay system": "E. coli expressing WT APH(3′)II",
    "result value": 2500
  },
  {
    "compound": "NC[C@H]1O[C@H](O[C@H]2[C@H](O)[C@@H](O[C@H]3O[C@H](CO)[C@@H](O)[C@H](N)[C@H]3O)[C@H](N)C[C@@H]2N)[C@H](O)[C@@H](O)[C@@H]1O [kanamycin]",
    "assay system": "E. coli expressing WT APH(3′)II",
    "result value": 225
  }
]
